Test system: SW-620
experiment: NCI tumour cell line growth inhibition, 48 h
Calls of active or inactive are those of the source. Cut-off read from the data, not from the text of the source: active = GI50 up to about 1.1 µM and inactive = higher.
Labels: True = active, False = inactive

[
  {
    "compound": "CC(=O)NC1=C(OS(=O)(=O)c2ccc(C)cc2)CN(C)C1=O",
    "class_assignment": "False"
  },
  {
    "compound": "N=C(N)SCc1ccc(Cl)cc1Cl.O=[N+]([O-])c1c(O)c(Cl)cc(Cl)c1Cl",
    "class_assignment": "False"
  },
  {
    "compound": "N#C/C(N)=C(\\C#N)NC(=O)C(=O)N/C(C#N)=C(\\N)C#N",
    "class_assignment": "False"
  },
  {
    "compound": "Clc1ccc(-c2nnc3c4nnc(-c5ccc(Cl)cc5Cl)n4c4ccccc4n23)c(Cl)c1",
    "class_assignment": "False"
  },
  {
    "compound": "CC1NC(=O)CC(c2ccccc2)N(N=O)C1c1ccccc1 (stereo unspecified)",
    "class_assignment": "False"
  },
  {
    "compound": "Clc1cc(Cl)c2c(Cl)cc(Cl)c3c2c1N=S=N3",
    "class_assignment": "False"
  },
  {
    "compound": "CN(C)/C=C/c1nnc([N+](=O)[O-])s1",
    "class_assignment": "False"
  },
  {
    "compound": "COc1cc2c(c(OC)c1OC)-c1ccc(SC)cc1C(=O)CC2",
    "class_assignment": "True"
  },
  {
    "compound": "CSc1cccc(NC(=O)OC2CCCCCCCCCCC2)c1",
    "class_assignment": "False"
  },
  {
    "compound": "COc1cccc(-c2nc(-c3cnccn3)n(COCCO)n2)c1",
    "class_assignment": "False"
  },
  {
    "compound": "CC(=O)C1(C)CC(C#N)(C#N)C(C#N)=C1N (stereo unspecified)",
    "class_assignment": "False"
  }
]

---

Recorded GI50 for the following compounds
Test system: MCF7
experiment: NCI tumour cell line growth inhibition, 48 h
The source made the active and inactive calls. Rule as the data show it: active = GI50 up to about 1.1 µM and inactive = higher.

[
  {
    "compound": "COC(=O)C1Cc2cc3c(cc2C1=O)CCC3 (centres undefined)",
    "GI50": "> 100 µM (inactive)"
  },
  {
    "compound": "NCCCCC(NC(=O)C(N)Cc1ccc(O)cn1)C(=O)O (centres undefined)",
    "GI50": "> 100 µM (inactive)"
  },
  {
    "compound": "CC(C)NC(=O)OCc1c(COC(=O)NC(C)C)n(C)c2c1ccc1sccc12",
    "GI50": "13.5 µM (inactive)"
  },
  {
    "compound": "CCc1c(Cl)c(C)cc(O)c1Cl",
    "GI50": "32 µM (inactive)"
  },
  {
    "compound": "C[C@H]1[C@H](C)CC[C@]2(C(=O)OC3OC(CO)C(O)C(O)C3O)CC[C@]3(C)C(=CC[C@@H]4[C@@]5(C)C[C@@H](O)[C@@H]6OC(=O)c7cc(O)c(O)c(O)c7-c7c(cc(O)c(O)c7O)C(=O)OC[C@]6(CO)[C@@H]5CC[C@]43C)[C@H]12 (some centres undefined)",
    "GI50": "7.1 µM (inactive)"
  },
  {
    "compound": "C=CCN1C(=O)CC(=O)N(NC2=NNC3(C(=O)N2)c2ccccc2-c2ccccc23)C1=S",
    "GI50": "25.8 µM (inactive)"
  },
  {
    "compound": "CC1=NN(c2nc(N)nc(CCl)n2)CC1",
    "GI50": "38.1 µM (inactive)"
  },
  {
    "compound": "CC(=O)/C=C1/C(=O)C(CC(C)C)=C1CC(C)C",
    "GI50": "> 100 µM (inactive)"
  },
  {
    "compound": "Cc1ccc2c(c1)C(=O)C1(C2)Cc2cccc(C)c2C1=O (centres undefined)",
    "GI50": "> 100 µM (inactive)"
  }
]
